Provide the reported combination Emax of each item.
- Tested on: BFTC-905 (Bladder Carcinoma)
- TEST: combination Emax (second highest fraction inhibited in the dose matrix, 72 h); higher = more inhibition; extreme values may be limits of the assay
# answer = number (no unit)

Query string: Kindly state the measured combination Emax obtained for Cn1cnc2c(F)c(Nc3ccc(Br)cc3Cl)c(C(=O)NOCCO)cc21 [Selumetinib] + C[C@@H]1COCCN1C2=NC(=NC(=C2)C3(CC3)[S@](=N)(=O)C)C4=C5C=CNC5=NC=C4 [AZD6738] (first compound max 10 µM, 7x7, partner max 10 µM) with BFTC-905 (Bladder Carcinoma).
Result string: 0.784

Query string: Kindly state the measured combination Emax obtained for Cc1c2c(nn1C)CSCc1cc(n(C)n1)CSc1cc(c3ccccc3c1)OCCCc1c(C(=O)O)n(C)c3c-2c(Cl)ccc13 [AZD5991] + CS(=O)(=O)CCNCc1ccc(-c2ccc3ncnc(Nc4ccc(OCc5cccc(F)c5)c(Cl)c4)c3c2)o1 [Lapatinib] (first compound max 1 µM, 7x7, partner max 10 µM) with BFTC-905 (Bladder Carcinoma).
Result string: 0.407

Query string: Kindly state the measured combination Emax obtained for CC1(C)CCC(CN2CCN(c3ccc(C(=O)NS(=O)(=O)c4ccc(NCC5CCOCC5)c([N+](=O)[O-])c4)c(Oc4cnc5[nH]ccc5c4)c3)CC2)=C(c2ccc(Cl)cc2)C1 [Venetoclax] + CS(=O)(=O)CCNCc1ccc(-c2ccc3ncnc(Nc4ccc(OCc5cccc(F)c5)c(Cl)c4)c3c2)o1 [Lapatinib] (first compound max 1 µM, 7x7, partner max 10 µM) with BFTC-905 (Bladder Carcinoma).
Result string: 0.254

* * *

- Tested on: DiFi (Colorectal Carcinoma)
- TEST: combination Emax (second highest fraction inhibited in the dose matrix, 72 h); higher = more inhibition; extreme values may be limits of the assay
MEASURED_METRIC: combination Emax
# answer = number (no unit)

Query string: Fill in: combination Emax of C[C@@H](c1ccc2nccn2c1)n1nnc2ncc(-c3cnn(C)c3)nc21 [Savolitinib] + CN(CC[C@H](CSC1=CC=CC=C1)NC2=C(C=C(C=C2)S(=O)(=O)NC(=O)C3=CC=C(C=C3)N4CCC(CC4)[C@H](C5=CC=CC=C5C6=CC=C(C=C6)Cl)O)S(=O)(=O)C(F)(F)F)CCO [AZD4320] (first compound max 1 µM, 7x7, partner max 1 µM) is ___
Result string: 0.495

Query string: Fill in: combination Emax of Cc1c2c(nn1C)CSCc1cc(n(C)n1)CSc1cc(c3ccccc3c1)OCCCc1c(C(=O)O)n(C)c3c-2c(Cl)ccc13 [AZD5991] + C1CN(CCC1(C(=O)N[C@@H](CCO)C2=CC=C(C=C2)Cl)N)C3=NC=NC4=C3C=CN4 [Capivasertib] (first compound max 1 µM, 7x7, partner max 3 µM) is ___
Result string: 0.438

Query string: Fill in: combination Emax of COc1cccc(OCCCN)c1-c1cc(Nc2cnc(C#N)cn2)n[nH]1 [Prexasertib] + C[C@@H]1COCCN1C2=NC(=NC(=C2)C3(CC3)[S@](=N)(=O)C)C4=C5C=CNC5=NC=C4 [AZD6738] (first compound max 1 µM, 7x7, partner max 10 µM) is ___
Result string: 0.881

* * *

- Tested on: WM-115 (Melanoma)
- TEST: combination Emax (second highest fraction inhibited in the dose matrix, 72 h); higher = more inhibition; extreme values may be limits of the assay
Provide the reported combination Emax of each item.
# answer = number (no unit)

Query string: Fill in: combination Emax of COc1cccc(OCCCN)c1-c1cc(Nc2cnc(C#N)cn2)n[nH]1 [Prexasertib] + O=C(c1cc(Cc2n[nH]c(=O)c3ccccc23)ccc1F)N1CCN(C(=O)C2CC2)CC1 [Olaparib] (first compound max 1 µM, 7x7, partner max 10 µM) is ___
Result string: 0.556

Query string: Fill in: combination Emax of NC1(C(=O)N[C@@H](CCO)c2ccc(Cl)cc2)CCN(c2ncnc3[nH]ccc23)CC1 [Capivasertib] + C[C@@H]1COCCN1C2=NC(=NC(=C2)C3(CC3)[S@](=N)(=O)C)C4=C5C=CNC5=NC=C4 [AZD6738] (first compound max 10 µM, 7x7, partner max 10 µM) is ___
Result string: 0.628

Query string: Fill in: combination Emax of COc1cccc(OCCCN)c1-c1cc(Nc2cnc(C#N)cn2)n[nH]1 [Prexasertib] + CN(C)CCCOc1ccc(-c2ccc3ncc4c(c3c2)n(C2CCOCC2)c(=O)n4C)cn1 [AZD0156] (first compound max 1 µM, 7x7, partner max 1 µM) is ___
Result string: 0.566

Query string: Fill in: combination Emax of Cc1cc2ncnn2cc1Nc1ncc2c(n1)n(C1CCOCC1)c(=O)n2C [AZD7648] + O=C(c1cc(Cc2n[nH]c(=O)c3ccccc23)ccc1F)N1CCN(C(=O)C2CC2)CC1 [Olaparib] (first compound max 10 µM, 7x7, partner max 10 µM) is ___
Result string: 0.229

* * *

- Tested on: CAMA-1 (Breast Carcinoma)
- TEST: combination Emax (second highest fraction inhibited in the dose matrix, 72 h); higher = more inhibition; extreme values may be limits of the assay
MEASURED_METRIC: combination Emax

Query string: Fill in: combination Emax of CC1(C)CCC(CN2CCN(c3ccc(C(=O)NS(=O)(=O)c4ccc(NCC5CCOCC5)c([N+](=O)[O-])c4)c(Oc4cnc5[nH]ccc5c4)c3)CC2)=C(c2ccc(Cl)cc2)C1 [Venetoclax] + CCN(CCO)CCCOc1ccc2c(Nc3cc(CC(=O)Nc4cccc(F)c4)[nH]n3)ncnc2c1 [AZD2811] (first compound max 1 µM, 7x7, partner max 1 µM) is ___
Result string: 0.224

Query string: Fill in: combination Emax of CN(CCO)CC[C@H](CSc1ccccc1)Nc1ccc(S(=O)(=O)NC(=O)c2ccc(N3CCC([C@@H](O)c4ccccc4-c4ccc(Cl)cc4)CC3)cc2)cc1S(=O)(=O)C(F)(F)F [AZD4320] + C=CCn1c(=O)c2cnc(Nc3ccc(N4CCN(C)CC4)cc3)nc2n1-c1cccc(C(C)(C)O)n1 [AZD1775] (first compound max 1 µM, partner max 1 µM) is ___
Result string: 0.182

* * *

- Tested on: U251 (Low Grade Glioma);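 further: after 72 h of two-drug dosing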
- TEST: Bliss excess, mean over the matrix (fraction); higher = more synergy
Classification field: enter Criterion met for Bliss excess values not below -0.03, Criterion not met for values below it.

Query string: Entry CC1(C)CCC(CN2CCN(c3ccc(C(=O)NS(=O)(=O)c4ccc(NCC5CCOCC5)c([N+](=O)[O-])c4)c(Oc4cnc5[nH]ccc5c4)c3)CC2)=C(c2ccc(Cl)cc2)C1 [Venetoclax] + CN(C)CCCOc1ccc(-c2ccc3ncc4c(c3c2)n(C2CCOCC2)c(=O)n4C)cn1 [AZD0156] (first compound max 1 µM, 7x7, partner max 1 µM) : is its Bliss excess no less than -0.03?
Result string: Criterion met

Query string: Entry CC1(C)CCC(CN2CCN(c3ccc(C(=O)NS(=O)(=O)c4ccc(NCC5CCOCC5)c([N+](=O)[O-])c4)c(Oc4cnc5[nH]ccc5c4)c3)CC2)=C(c2ccc(Cl)cc2)C1 [Venetoclax] + Cc1cc2ncnn2cc1Nc1ncc2c(n1)n(C1CCOCC1)c(=O)n2C [AZD7648] (first compound max 1 µM, 7x7, partner max 10 µM) : is its Bliss excess no less than -0.03?
Result string: Criterion not met

Query string: Entry Cc1nc(Nc2ncc(C(=O)Nc3c(C)cccc3Cl)s2)cc(N2CCN(CCO)CC2)n1 [Dasatinib] + CC(=O)Nc1cccc(-n2c(=O)n(C3CC3)c(=O)c3c(Nc4ccc(I)cc4F)n(C)c(=O)c(C)c32)c1 [Trametinib] (first compound max 2 µM, 7x7, partner max 1 µM) : is its Bliss excess no less than -0.03?
Result string: Criterion met

Query string: Entry Cc1c2c(nn1C)CSCc1cc(n(C)n1)CSc1cc(c3ccccc3c1)OCCCc1c(C(=O)O)n(C)c3c-2c(Cl)ccc13 [AZD5991] + C[C@@H](Nc1cc(F)cc(F)c1)c1cc(C(=O)N(C)C)cc2c(=O)cc(N3CCOCC3)oc12 [AZD8186] (first compound max 1 µM, 7x7, partner max 3 µM) : is its Bliss excess no less than -0.03?
Result string: Criterion not met

Query string: Entry COc1cccc(OCCCN)c1-c1cc(Nc2cnc(C#N)cn2)n[nH]1 [Prexasertib] + O=C(c1cc(Cc2n[nH]c(=O)c3ccccc23)ccc1F)N1CCN(C(=O)C2CC2)CC1 [Olaparib] (first compound max 1 µM, 7x7, partner max 10 µM) : is its Bliss excess no less than -0.03?
Result string: Criterion met

Query string: Entry CN(CCO)CC[C@H](CSc1ccccc1)Nc1ccc(S(=O)(=O)NC(=O)c2ccc(N3CCC([C@@H](O)c4ccccc4-c4ccc(Cl)cc4)CC3)cc2)cc1S(=O)(=O)C(F)(F)F [AZD4320] + C=CCn1c(=O)c2cnc(Nc3ccc(N4CCN(C)CC4)cc3)nc2n1-c1cccc(C(C)(C)O)n1 [AZD1775] (first compound max 1 µM, partner max 1 µM) : is its Bliss excess no less than -0.03?
Result string: Criterion not met
